In this section we review reported AUC of viability dose-response curve values for a set of compounds.
# System: NOMO1
# Measurement Protocol: AUC of viability dose-response curve (% viability x log10 dose units); higher = less sensitive
# Measurement Setup: RPMI 5 mM glucose + 10% dialyzed FBS; 48 h
Quantity Kind: AUC of viability dose-response curve

>>> result("CCCCCCCCCC(=O)N[C@@H](Cc1c[nH]c2ccccc12)C(=O)N[C@H](CC(N)=O)C(=O)N[C@@H](CC(=O)O)C(=O)N[C@@H]1C(=O)NCC(=O)N[C@@H](CCCN)C(=O)N[C@@H](CC(=O)O)C(=O)N[C@H](C)C(=O)N[C@@H](CC(=O)O)C(=O)NCC(=O)N[C@H](CO)C(=O)N[C@@H]([C@@H](C)CC(=O)O)C(=O)N[C@@H](CC(=O)c2ccccc2N)C(=O)O[C@@H]1C")
469
>>> result("COCCOc1nc(-c2ccc(Cl)c(Cl)c2)n(-c2ccc(NC(=O)CCl)cc2)n1")
433
>>> result("CC[C@H](NC(=O)[C@H](C)NC)C(=O)N1C[C@@H](O)C[C@H]1Cc1c(-c2[nH]c3cc(F)ccc3c2C[C@@H]2C[C@H](O)CN2C(=O)[C@H](CC)NC(=O)[C@H](C)NC)[nH]c2cc(F)ccc12")
362
>>> result("CCc1nc(-c2cccc(C)c2)c(-c2ccnc(NC(=O)c3ccccc3)c2)s1")
443
>>> result("C[C@]12CC[C@H]3[C@@H](CCC/4=C/C(=O)CC[C@]34C)[C@@H]1CC[C@@H]2O")
462

---

# Test system: SEM cells
# Measurement Protocol: cell viability relative to DMSO control; higher = less cytotoxic
# Measurement Setup: RPMI 5 mM glucose + 10% FBS; 48 h; 1.71 µM
In this section we review reported cell viability values for a set of compounds.
Quantity Kind: cell viability

>>> result("Cc1cc(Nc2nc(N[C@@H](C)c3ccc(F)cc3)c(C#N)cc2F)n[nH]1")
"93.4%"
>>> result("COC1=CC=C(C=C1O)C/2=C/C(=O)C3=C(O2)C=C(O)C=C3O")
"113%"
>>> result("CN1CCCC(CC1)N2\\N=C(CC3=CC=C(Cl)C=C3)/C4=C(C=CC=C4)C2=O (stereo not drawn)")
"98.9%"
>>> result("C/C(O)=C(\\C#N)C(=O)Nc1cc(Br)ccc1Br")
"113%"
>>> result("C[C@]12CC[C@@H]3c4ccc(O)cc4CC[C@H]3[C@@H]1C[C@@H](O)[C@@H]2O")
"79.7%"
>>> result("Cc1csc(NC(=O)c2sc3nc4c(c(C(F)(F)F)c3c2N)CCC4)n1")
"97.1%"
>>> result("CN(C)CCOc1ccc(-c2nc(-c3ccncc3)c(-c3ccc4c(c3)CC/C4=N\\O)[nH]2)cc1")
"114%"
>>> result("COc1ncnc(N[S+](=O)([O-])c2ccc(N)cc2)c1OC")
"44%"

---

In this section we review reported AUC of viability dose-response curve values for a set of compounds.
# System: P12-Ichikawa
# Measurement Protocol: AUC of viability dose-response curve (% viability x log10 dose units); higher = less sensitive
# Measurement Setup: HPLM + 10% dialyzed FBS; 48 h
Quantity Kind: AUC of viability dose-response curve

>>> numeric_result("O=C(c1ccc(F)c(F)c1Nc1ccc(I)cc1F)N1CC(O)([C@@H]2CCCCN2)C1")
410
>>> numeric_result("CN(C)CC[C@H](c1ccc(Cl)cc1)c1ccccn1")
413
>>> numeric_result("CC[C@@H]1/C=C(\\C)C[C@H](C)C[C@H](OC)[C@H]2O[C@@](O)(C(=O)C(=O)N3CCCC[C@H]3C(=O)O[C@H](/C(C)=C/[C@@H]3CC[C@H](Cl)[C@H](OC)C3)[C@H](C)[C@@H](O)CC1=O)[C@H](C)C[C@@H]2OC")
467
>>> numeric_result("[O-]C(=O)C1=C(C(=C(Cl)C(=C1Cl)Cl)Cl)C/2=C/3\\C=C(I)/C(=O)/C(=C3OC4=C2C=C(I)C(=C4I)[O-])I")
446
>>> numeric_result("COC(=O)C1C2CC3c4[nH]c5cc(OC)ccc5c4CCN3CC2CC(OC(=O)c2cc(OC)c(OC)c(OC)c2)C1OC (stereo unspecified)")
467
>>> numeric_result("CCCCC(C=O)NC(=O)C(CC(C)C)NC(=O)OCc1ccccc1 (stereo unspecified)")
422

---

# System: SEM cells
# Measurement Protocol: AUC of viability dose-response curve (% viability x log10 dose units); higher = less sensitive
# Measurement Setup: HPLM + 10% dialyzed FBS; 48 h
In this section we review reported AUC of viability dose-response curve values for a set of compounds.
Quantity Kind: AUC of viability dose-response curve

>>> numeric_result("[O-]C(=O)C1=C(C(=C(Cl)C(=C1Cl)Cl)Cl)C/2=C/3\\C=C(I)/C(=O)/C(=C3OC4=C2C=C(I)C(=C4I)[O-])I")
466
>>> numeric_result("CCN(CC)CCCCNc1ncc2c(n1)N(C)C(=O)N(c1c(Cl)c(OC)cc(OC)c1Cl)C2")
423
>>> numeric_result("Cc1cc(Nc2cc(CN3CCOCC3)c3nc(C)c(Cc4ccc(Cl)cc4F)n3n2)[nH]n1")
342
>>> numeric_result("CC(C)c1cnn2c(NCc3ccccc3)cc(NCCCCCCN)nc12")
465
>>> numeric_result("NC(=O)c1cccc2nc(-c3ccc([C@H]4CCCN4)cc3F)[nH]c12")
398
>>> numeric_result("O=C(CCN1CCN(C(=O)OCc2cc(Cl)cc(Cl)c2)CC1)c1ccc2[nH]c(=O)oc2c1")
472
>>> numeric_result("Cc1ccc([S+](=O)([O-])Nc2nc3ccccc3nc2Nc2ccc3nsnc3c2)cc1")
410
>>> numeric_result("C[C@@H](NC(=O)c1ncnc(N)c1Cl)c1ncc(C(=O)Nc2cc(C(F)(F)F)c(Cl)cn2)s1")
470
>>> numeric_result("COC1=CC=C(C=C1O)C/2=C/C(=O)C3=C(O2)C=C(O)C=C3O")
419
>>> numeric_result("COC1=CC=CC(=C1N)\\C2=C\\C(=O)C3=C(O2)C=CC=C3")
432

---

# System: P12-Ichikawa
# Measurement Protocol: cell viability relative to DMSO control; higher = less cytotoxic
# Measurement Setup: HPLM + 10% dialyzed FBS; 48 h; 0.000781 µM
In this section we review reported cell viability values for a set of compounds.
Quantity Kind: cell viability (%)

>>> numeric_result("O=C(O)CCn1c2c(c3ccccc31)C[C@H](N[S+](=O)([O-])c1ccc(F)cc1)CC2")
117
>>> numeric_result("C[C@]12CC[C@H]3[C@@H](CCC/4=C/C(=O)CC[C@]34C)[C@@H]1CC[C@@H]2O")
111
>>> numeric_result("C[C@]12CC[C@@H]3c4ccc(O)cc4CC[C@H]3[C@@H]1C[C@@H](O)[C@@H]2O")
117
>>> numeric_result("CC(C)c1cc(C(=O)N2Cc3ccc(CN4CCN(C)CC4)cc3C2)c(O)cc1O")
118
>>> numeric_result("c1ccc(CNc2nc(N3CCOc4ccccc43)nc3c2CCCC3)cc1")
101

---

In this section we review reported cell viability values for a set of compounds.
# Test system: NOMO1
# Measurement Protocol: cell viability relative to DMSO control; higher = less cytotoxic
# Measurement Setup: HPLM + 10% dialyzed FBS; 48 h; 0.19 µM
Quantity Kind: cell viability (%)

>>> numeric_result("CCC\\C1=C\\C(=O)NC(=S)N1")
126
>>> numeric_result("NC(=O)C1CCCc2c1[nH]c1ccc(Cl)cc21 (stereo not drawn)")
117
>>> numeric_result("COc1cc2nc(-c3cc(F)ccc3O)nc(N[C@@H]3CNC[C@H]3C(C)(C)O)c2cc1OC")
122

---

# Test system: P12-Ichikawa
# Measurement Protocol: cell viability relative to DMSO control; higher = less cytotoxic
# Measurement Setup: HPLM + 10% dialyzed FBS; 48 h; 1.71 µM
In this section we review reported cell viability values for a set of compounds.
Quantity Kind: cell viability (%)

>>> numeric_result("CN(C)CCOc1ccc(-c2nc(-c3ccncc3)c(-c3ccc4c(c3)CC/C4=N\\O)[nH]2)cc1")
100
>>> numeric_result("COC1=CC=CC(=C1N)\\C2=C\\C(=O)C3=C(O2)C=CC=C3")
129
>>> numeric_result("NC(=O)C1CCCc2c1[nH]c1ccc(Cl)cc21 (stereo not drawn)")
102
>>> numeric_result("O=C1Nc2ccc(I)cc2/C1=C/c1cc(Br)c(O)c(Br)c1")
102
>>> numeric_result("OC(=O)C(CC/1=C/C(=O)NC2=CC=CC=C12)NC(=O)C3=CC=C(Cl)C=C3 (stereo not drawn)")
128
>>> numeric_result("CC[C@H](C)C(=O)O[C@H]1C[C@H](O)\\C=C2\\C=C/[C@H](C)[C@H](CC[C@@H](O)C[C@@H](O)CC(O)=O)[C@@H]12")
97.1
>>> numeric_result("Nc1ncnc2ccccc12")
105
>>> numeric_result("CCC(=C/[C@H](C)C/C=C/C(C)=C/[C@@H](C)C(=O)[C@@H](C)[C@H](O)[C@@H](C)C/C(C)=C/C(=O)O)/C=C/[C@@H]1OC(=O)C=C[C@@H]1C")
109
>>> numeric_result("CN1\\N=C(N)/C2=C[N]([C@@H]3O[C@H](CO[P](O)(O)=O)[C@@H](O)[C@H]3O)C4=C2C1=NC=N4")
53
>>> numeric_result("CN1c2ccccc2C(=O)N2CCc3c([nH]c4ccccc34)C21 (stereo not drawn)")
115
>>> numeric_result("Cn1cc(/C=C2\\C(=O)Nc3cccnc32)c2ccccc21")
134
>>> numeric_result("CCC\\C1=C\\C(=O)NC(=S)N1")
110
>>> numeric_result("C[S+](=O)([O-])c1cccc(CNc2nc(Nc3ccc4c(c3)CCC(=O)N4)ncc2C(F)(F)F)c1")
102
